Reported pIC50 values for a set of compounds
Biological target: L-lactate dehydrogenase A chain (Homo sapiens, UniProt P00338)
Experiment: Inhibition of GS[HiBiT]GS-tagged LDHA (unknown origin) expressed in HEK-293T cells measured after 1 hr by […]
Type: cell-based
To interpret pIC50, take it as minus log10 of a concentration measured in moles per litre.

COMPOUND	pIC50
CC(C)C#Cc1cc(-c2nn(-c3nc(C(=O)O)cs3)c(CC3CC3)c2Cc2ccc(S(N)(=O)=O)c(F)c2)ccc1F	5.69
Cn1cc(C#Cc2cc(-c3nn(-c4nc(C(=O)O)cs4)c(CC4CC4)c3Cc3ccc(S(N)(=O)=O)c(F)c3)ccc2F)cn1	6.72
NS(=O)(=O)c1ccc(Cc2c(-c3cccc(C#Cc4ccc(Cl)s4)c3)nn(-c3nc(C(=O)O)cs3)c2CC2CC2)cc1F	6.95
COCC#Cc1cc(-c2nn(-c3nc(C(=O)O)cs3)c(CC3CC3)c2Cc2ccc(S(N)(=O)=O)c(F)c2)ccc1F	6.92
CC(C)(C)/C=C/c1cc(-c2nn(-c3nc(C(=O)O)cs3)c(CC3CC3)c2Cc2ccc(S(N)(=O)=O)c(F)c2)ccc1F	6.95
Cc1ccc(C#Cc2cc(-c3nn(-c4nc(C(=O)O)cs4)c(CC4CC4)c3Cc3ccc(S(N)(=O)=O)c(F)c3)ccc2F)s1	6.97

Exercise: Please give the measured pIC50 for this compound: NS(=O)(=O)c1ccc(Cc2c(-c3ccc(F)c(C#CCC4CCCO4)c3)nn(-c3nc(C(=O)O)cs3)c2CC2CC2)cc1F (stereo not given)
Key: 6.75

Exercise: Please give the measured pIC50 for this compound: Cc1cnc(C#Cc2cccc(-c3nn(-c4nc(C(=O)O)cs4)c(CCC4CC4)c3Cc3ccc(S(N)(=O)=O)c(F)c3)c2)s1
Key: 7.08

Exercise: Please give the measured pIC50 for this compound: NS(=O)(=O)c1ccc(Cc2c(-c3ccc(F)c(/C=C/C4CC4)c3)nn(-c3nc(C(=O)O)cs3)c2CC2CC2)cc1F
Key: 6.87

Every entry's value here was drawn from ChEMBL document CHEMBL4665801.
